B1: Intersectin-1, residues 1156 to 1213; numbered along this chain, Q15811 (parent)
chain: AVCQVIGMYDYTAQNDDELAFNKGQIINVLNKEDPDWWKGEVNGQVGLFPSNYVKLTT

# Variants of: B1
# assay_method_text: abundance fitness (aPCA) (normalised: wild type 0, dead -1); higher = more abundant; growth selection in yeast, the domain comes from the species named
# recorded_conditions: Homo sapiens
observable: abundance fitness

Hi, could you look up abundance fitness for each item in my list?
1. I26E
2. L56C
3. N15D
4. V46H
5. A20T

1: -0.278; 2: 0.266; 3: -0.185; 4: -0.562; 5: 0.127

Give me abundance fitness for each of these variants, listed below.
1. L19N
2. M8I
3. D16R
4. W38A
5. K39V
6. D36C
7. W38T

-0.7
0.542
-0.293
-0.533
-0.448
-0.117
-0.892

For every record below, what is its abundance fitness?
1. N31F
2. G47A

-1.05
-0.755

Lab note: each variant below needs its abundance fitness filled in.
1. V5D
2. V2A
3. E33H
4. K55D
5. I6R

[-0.711, -0.492, -0.373, -0.513, -0.446]
